Data origin: patent US12655106B2

- system.tested: Full length Human HDAC8 (Homo sapiens, UniProt Q9BY41)
- Sequence (Q9BY41 1-377): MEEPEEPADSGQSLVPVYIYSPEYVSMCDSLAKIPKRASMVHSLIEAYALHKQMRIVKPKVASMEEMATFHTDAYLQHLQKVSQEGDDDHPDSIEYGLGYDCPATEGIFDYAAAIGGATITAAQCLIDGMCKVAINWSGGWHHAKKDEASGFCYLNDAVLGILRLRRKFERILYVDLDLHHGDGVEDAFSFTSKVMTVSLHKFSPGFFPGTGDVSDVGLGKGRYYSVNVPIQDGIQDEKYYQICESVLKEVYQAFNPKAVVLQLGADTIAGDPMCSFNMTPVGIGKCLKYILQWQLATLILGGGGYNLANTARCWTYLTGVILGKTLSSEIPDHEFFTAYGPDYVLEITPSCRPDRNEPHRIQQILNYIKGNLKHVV
pIC50: −log10 of the molar value.
Could you please report measured pIC50 for the items listed next?

{"molecule": "CN1CC[C@@]2(CC[C@H](N3CCc4cc(C(=O)NO)cc(F)c4C3)C2)C1 (single isomer, unassigned) [Compound 405]", "pIC50": "< 4.00"}

Could I get pIC50 for every one of these entries?
1. CC(C)N1CC2(CCCCC2)CC[C@H]1Cc1cc(F)cc(C(=O)NO)c1 (single isomer, unassigned) [Compound 274]
2. O=C(NO)c1cc(F)c2c(c1)CCN(C1CCC3(CCCCC3)CC1)C2 [Compound 182]
3. CC[C@@H]1Cc2c(F)cc(C(=O)NO)cc2CN1C[C@]12C[C@H](CO1)N(C)C2 (single isomer, unassigned) [Compound 554]

Marked response:
1: 5.00 to 6.00; 2: 4.00 to 5.00; 3: 5.00 to 6.00

Okay, here is my list. What is pIC50 for each of these?
1. CN1CCC2(CC1)CC(CN1CCc3cc(C(=O)NO)cc(F)c3C1)C2 [Compound 469]
2. CN1CC[C@]2(CC[C@@H]2N2CCc3cc(C(=O)NO)cc(F)c3C2)C1 (single isomer, unassigned) [Compound 330]
3. CC(=O)N1CCC2(CC1)CC(N1CCc3cc(C(=O)NO)cc(F)c3C1)C2 [Compound 199]
4. O=C(NO)c1ccc2c(c1)CCN1CCC[C@H]21 [Compound 148]

Marked response:
["5.00 to 6.00", "4.00 to 5.00", "4.00 to 5.00", "5.00 to 6.00"]

---

Consider the following pIC50 values measured on Full length Human HDAC8 (Homo sapiens, UniProt Q9BY41).
pIC50: −log10 of the molar value.

Before answering, review these 3 worked examples.
{"compound": "O=C(NO)c1cc(F)c2c(c1)CCN(C1CC3(CCOC3)C1)C2 (single isomer, unassigned) [Compound 188]", "system.tested": "Full length Human HDAC8 (Homo sapiens, UniProt Q9BY41)", "pIC50": "4.00 to 5.00"}
{"compound": "O=C(NO)c1cc(F)c2c(c1)CCN(C1CCC3(CCN(C4CC4)CC3)C1)C2 (stereo not shown)", "system.tested": "Full length Human HDAC8 (Homo sapiens, UniProt Q9BY41)", "pIC50": "5.00 to 6.00"}
{"compound": "O=C(NO)c1ccc2c(c1)CCN1CCCC[C@H]21", "system.tested": "Full length Human HDAC8 (Homo sapiens, UniProt Q9BY41)", "pIC50": "5.00 to 6.00"}

Could you now look at the following compound, please?
Exam item: State its pIC50 on Full length Human HDAC8 (Homo sapiens, UniProt Q9BY41): O=C(NO)c1cc(F)c2c(c1)CCN([C@H]1C[C@]3(CCCN(C4CC4)C3)C1)C2 (single isomer, unassigned)
Marked response: 5.00 to 6.00

---

Provide the reported IC50 of each item.
Target chain: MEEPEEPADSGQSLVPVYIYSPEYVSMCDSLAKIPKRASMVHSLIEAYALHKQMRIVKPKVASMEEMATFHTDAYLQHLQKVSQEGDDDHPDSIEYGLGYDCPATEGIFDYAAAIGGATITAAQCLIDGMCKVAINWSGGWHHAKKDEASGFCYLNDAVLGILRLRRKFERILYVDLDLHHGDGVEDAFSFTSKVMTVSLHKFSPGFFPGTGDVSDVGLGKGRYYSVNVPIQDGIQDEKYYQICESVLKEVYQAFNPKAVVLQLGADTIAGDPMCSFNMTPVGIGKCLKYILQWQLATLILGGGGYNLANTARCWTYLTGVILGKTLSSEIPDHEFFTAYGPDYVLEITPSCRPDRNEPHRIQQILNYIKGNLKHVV

Would you please look over these solved cases?
{"compound": "O=C(NO)c1cc(F)c2c(c1)CCN([C@H]1CCC3(CCC3)C1)C2 (single isomer, unassigned) [Compound 383]", "IC50": "10 to 100 µM"}
{"compound": "O=C(NO)c1cc(F)c2c(c1)CN1CCC[C@@H]1C2 [Compound 124]", "IC50": "1 to 10 µM"}
{"compound": "O=C(NO)c1cc(F)c2c(c1)CCN(C1CCC13CCCC3)C2 (stereo not shown) [Compound 314]", "IC50": "1 to 10 µM"}
{"compound": "O=C(NO)c1cc(F)c2c(c1)CN1CCCC[C@H]1C2 [Compound 146]", "IC50": "10 to 100 µM"}
{"compound": "CC1(C)C[C@H]2Cc3c(F)cc(C(=O)NO)cc3CN2C1 [Compound 128]", "IC50": "1 to 10 µM"}
{"compound": "CC(=O)N1CCC2(CC1)CC(CN1CCc3cc(C(=O)NO)cc(F)c3C1)C2 [Compound 471]", "IC50": "10 to 100 µM"}
{"compound": "CC[C@H]1Cc2c(F)cc(C(=O)NO)cc2CN1C1CCCC1 (single isomer, unassigned) [Compound 581]", "IC50": "10 to 100 µM"}
{"compound": "CN1[C@@H]2CC[C@H]1CC(CN1CCc3cc(C(=O)NO)cc(F)c3C1)C2 (single isomer, unassigned) [Compound 482]", "IC50": "1 to 10 µM"}

Hi, could you look up IC50 for each item in my list?
1. CC(=O)N1CC[C@@H](N2CCc3cc(C(=O)NO)cc(F)c3C2)CC12CCC2 (single isomer, unassigned) [Compound 442]
2. O=C(NO)c1cc(F)c2c(c1)CCN(CC1CC3(CCN(C4CC4)CC3)C1)C2 [Compound 470]

Marked response:
1. 10 to 100 µM
2. 10 to 100 µM

Each of the following entries comes with a recorded value; kindly state IC50 for each.
1. CN1C[C@@]2(CN3CCc4cc(C(=O)NO)cc(F)c4C3)C[C@@H]1CO2 [Compound 474]
2. CN1CC[C@]2(CC[C@H]2N2CCc3cc(C(=O)NO)cc(F)c3C2)C1 (single isomer, unassigned) [Compound 332]
3. O=C(NO)c1cc(F)c2c(c1)CCN(CC1CC3CCC(C1)N3C1CC1)C2 (stereo not shown) [Compound 484]
4. CC[C@@H]1Cc2c(F)cc(C(=O)NO)cc2CN1C[C@@H]1CCCCO1 (single isomer, unassigned) [Compound 228]
5. O=C(NO)c1cc(F)c2c(c1)CCN1CCC[C@H]21 [Compound 80]
6. CC[C@@H]1Cc2c(F)cc(C(=O)NO)cc2CN1CC1CCC2(CCC2)CC1 (single isomer, unassigned) [Compound 527]
7. O=C(NO)c1cc(F)c2c(c1)CCN(C1CCC13CCC3)C2 (stereo not shown) [Compound 299]
8. CN1CC2(CCC2N2CCc3cc(C(=O)NO)cc(F)c3C2)C1 (stereo not shown) [Compound 302]

Marked response:
1: 1 to 10 µM; 2: 1 to 10 µM; 3: 1 to 10 µM; 4: 1 to 10 µM; 5: 1 to 10 µM; 6: 1 to 10 µM; 7: 10 to 100 µM; 8: 1 to 10 µM

---

- system.tested: Full length Human HDAC6 (Homo sapiens)
- Sequence (Q9UBN7 whole entry): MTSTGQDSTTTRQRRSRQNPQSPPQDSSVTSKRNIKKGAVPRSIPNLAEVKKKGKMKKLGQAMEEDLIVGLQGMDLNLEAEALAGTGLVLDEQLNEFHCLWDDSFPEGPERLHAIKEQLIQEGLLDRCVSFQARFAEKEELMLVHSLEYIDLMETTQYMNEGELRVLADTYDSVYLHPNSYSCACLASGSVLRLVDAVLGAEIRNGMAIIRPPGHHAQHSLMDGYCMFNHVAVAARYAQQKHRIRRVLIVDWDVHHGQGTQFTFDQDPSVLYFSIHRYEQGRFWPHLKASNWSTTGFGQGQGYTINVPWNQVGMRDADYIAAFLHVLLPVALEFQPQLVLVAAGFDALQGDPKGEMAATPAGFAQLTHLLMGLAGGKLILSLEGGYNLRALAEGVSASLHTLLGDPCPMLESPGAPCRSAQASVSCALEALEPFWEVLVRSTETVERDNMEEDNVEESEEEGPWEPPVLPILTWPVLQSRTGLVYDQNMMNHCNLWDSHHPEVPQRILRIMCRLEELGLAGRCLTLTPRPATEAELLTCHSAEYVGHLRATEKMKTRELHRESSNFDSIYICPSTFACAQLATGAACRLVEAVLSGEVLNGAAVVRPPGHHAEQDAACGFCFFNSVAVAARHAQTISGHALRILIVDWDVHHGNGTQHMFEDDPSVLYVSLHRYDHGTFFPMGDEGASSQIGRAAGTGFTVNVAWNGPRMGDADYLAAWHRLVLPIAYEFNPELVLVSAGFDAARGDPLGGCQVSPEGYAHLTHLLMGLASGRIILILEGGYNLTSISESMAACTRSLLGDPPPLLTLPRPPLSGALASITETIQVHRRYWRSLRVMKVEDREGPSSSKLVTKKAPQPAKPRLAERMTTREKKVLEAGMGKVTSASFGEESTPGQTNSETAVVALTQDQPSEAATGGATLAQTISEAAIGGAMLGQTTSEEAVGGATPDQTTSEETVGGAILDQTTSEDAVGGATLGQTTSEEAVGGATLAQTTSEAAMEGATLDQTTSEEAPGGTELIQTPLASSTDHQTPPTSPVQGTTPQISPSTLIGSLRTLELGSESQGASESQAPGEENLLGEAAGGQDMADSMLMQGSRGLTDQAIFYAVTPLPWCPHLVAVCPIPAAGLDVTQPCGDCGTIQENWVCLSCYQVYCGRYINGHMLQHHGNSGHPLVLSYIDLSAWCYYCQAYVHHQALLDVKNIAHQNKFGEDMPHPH
attribute.measured: IC50

Past entries and their recorded results:
{"molecule": "CC[C@H]1Cc2c(F)cc(C(=O)NO)cc2CN1C1COC1 (single isomer, unassigned)", "system.tested": "Full length Human HDAC6 (Homo sapiens)", "assay.value": "1 to 100 nM"}
{"molecule": "O=C(NO)c1cc(F)c2c(c1)C[C@H]1CCCN1C2", "system.tested": "Full length Human HDAC6 (Homo sapiens)", "assay.value": "1 to 100 nM"}
{"molecule": "O=C(NO)c1cc(F)c2c(c1)C[C@H]1COCCN1C2 (single isomer, unassigned)", "system.tested": "Full length Human HDAC6 (Homo sapiens)", "assay.value": "10000 to 100000 nM"}

Can you give me IC50 for all of these, one by one?
1. Cc1cc2c(cc1C(=O)NO)CCN(C1CC3(CCCCC3)C1)C2
2. CC(=O)N1CC2(CCC(CN3CCc4cc(C(=O)NO)cc(F)c4C3)CC2)C1
3. O=C(NO)c1cc(F)c2c(c1)C[C@@H]1COCCN1C2 (single isomer, unassigned)

Marked response:
> 100000 nM
1 to 100 nM
10000 to 100000 nM
